The reported numbers originate from the supplement of paper PMC10567573.

B1: PLD5 (parent)
chain: WIVDKQHVYIGSAGLDWQSLGQMK

# Variants of: B1
# assay.info: protein stability index of a GFP-peptide fusion (GPS, HEK-293T) (PSI 1-6); higher = more stable;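 also: lentivirally expressed fusions sorted by FACS into six bins by GFP to DsRed ratio, PSI derived from sequencing read proportions per bin multiplied by bin number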
# assay.setup: c terminus: a fixed tail appended
Collected protein stability index values appear next to each entry.

biosequence | protein stability index
WIVDKQHVYIGSAGLDGQSLGQMK [W17G] | 2.17
WIVDKQHMYIGSAGLDWQSLGQMK [V8M] | 2.45
WIVDKQHVYIGSAGLDWQQLGQMK [S19Q] | 1.9
WIFDKQHVYIGSAGLDWQSLGQMK [V3F] | 1.96
WIVDKQKVYIGSAGLDWQSLGQMK [H7K] | 1.54
WIVDKQHVYIGSAGLDWESLGQMK [Q18E] | 1.6
WIEDKQHVYIGSAGLDWQSLGQMK [V3E] | 2.09
WAVDKQHVYIGSAGLDWQSLGQMK [I2A] | 2.32
WIVDKQHVYIGSAGLMWQSLGQMK [D16M] | 2.83
WIVDKQHVYIGSAGHDWQSLGQMK [L15H] | 1.67
WIVDKQHVYIGSAGLDWQSLGQMA [K24A] | 2.37
